Assay: Cytotoxicity against Homo sapiens (human) MT4 cells after 4 days by MTT assay
Format: cell-based
API: label(entry) gives class 1 if the entry's CC50 at 96 h is strictly smaller than 40 µg/mL; on equality or larger values it gives class 0.

Solved entries:
1. C/C(=N\NC(=O)c1ccncc1)c1ccc(O)cc1 : class 0
2. C/C(=N\NC(=O)c1ccncc1)c1ccc(Br)cc1 : class 0
3. C/C(=N\NC(=O)c1ccncc1)c1ccc([N+](=O)[O-])cc1 : class 0

State whether 40 µg/mL exceeds CC50 at 96 h recorded for `C/C(=N\NC(=O)c1ccncc1)c1cccc([N+](=O)[O-])c1` . class 0

State whether 40 µg/mL exceeds CC50 at 96 h recorded for O=C(NN=C1CCCCCC1)c1ccncc1 [N'-CYCLOHEPTYLIDENEISONICOTINOHYDRAZIDE] . class 0

State whether 40 µg/mL exceeds CC50 at 96 h recorded for `COc1ccc(/C(C)=N/NC(=O)c2ccncc2)c(OC)c1` . class 1

State whether 40 µg/mL exceeds CC50 at 96 h recorded for `C/C(=N\NC(=O)c1ccncc1)c1ccc(Cl)cc1` . class 0

State whether 40 µg/mL exceeds CC50 at 96 h recorded for `C/C(=N\NC(=O)c1ccncc1)c1ccc(O)cc1O` . class 1

State whether 40 µg/mL exceeds CC50 at 96 h recorded for `C/C(=N\NC(=O)c1ccncc1)c1ccc(Cl)cc1Cl` . class 1

State whether 40 µg/mL exceeds CC50 at 96 h recorded for `C/C(=N\NC(=O)c1ccncc1)c1ccccc1O` . class 1

State whether 40 µg/mL exceeds CC50 at 96 h recorded for `COc1ccc(OC)c(/C(C)=N/NC(=O)c2ccncc2)c1` . class 0
